- assay.name: Phospholipidosis assay (LipidTox)
- Format: cell-based
- test.conditions: human
property.name: fold induction at 48 h, 3 µM

>  <compound>
O=CNCC(=O)NCCN1CCN(CCCN2c3ccccc3Sc3ccc(C(F)(F)F)cc32)CC1 [Compound 37b]

>  <observed.measurement>
4

$$$$
>  <compound>
CN[C@H]1CC[C@@H](c2ccc(Cl)c(Cl)c2)c2ccccc21 [Sertaline, sertraline, reference compound]

>  <observed.measurement>
52

$$$$
>  <compound>
NCC(=O)NCCN1CCN(CCCN2c3ccccc3Sc3ccc(C(F)(F)F)cc32)CC1 [ICI-735]

>  <observed.measurement>
6

$$$$
